Tested on: H3N2 and H1N1 strains
ASSAY PROCEDURE: microbe, parasite or virus in culture
Assay type: cell-based, influenza A virus
CONDITIONS USED: Influenza A virus, MDCK
pIC50: −log10 of the molar value.
QUANTITY: pIC50

Looking for the measured pIC50 of CC(=O)N[C@H]1[C@H]([C@H](O)[C@H](O)CO)OC(C(=O)O)=C[C@@H]1N=C(N)N [zanamivir, reference compound] , can you help?
7.86 to 7.97
